molecular target: Cytochrome P450 3A4 (Homo sapiens, UniProt P08684)
Sequence (P08684 whole entry): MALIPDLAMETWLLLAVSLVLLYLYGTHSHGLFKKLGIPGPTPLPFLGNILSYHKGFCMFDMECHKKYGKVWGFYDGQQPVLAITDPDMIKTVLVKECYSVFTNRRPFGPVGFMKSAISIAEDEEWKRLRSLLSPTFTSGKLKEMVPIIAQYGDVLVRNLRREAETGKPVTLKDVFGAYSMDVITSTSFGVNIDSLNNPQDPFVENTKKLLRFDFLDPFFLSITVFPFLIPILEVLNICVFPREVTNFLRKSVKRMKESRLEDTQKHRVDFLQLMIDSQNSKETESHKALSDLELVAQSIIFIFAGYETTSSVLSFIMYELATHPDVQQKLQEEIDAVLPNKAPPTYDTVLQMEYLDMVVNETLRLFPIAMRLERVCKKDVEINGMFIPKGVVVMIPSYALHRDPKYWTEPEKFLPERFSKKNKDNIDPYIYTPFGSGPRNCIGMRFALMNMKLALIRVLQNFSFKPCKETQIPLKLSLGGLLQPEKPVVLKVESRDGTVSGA
pIC50: −log10 of the molar value.

- item-smiles: "CCOCc1c(C(=O)NCc2cncn2C)cnn1-c1ncc(C)c(N2CCCCC2)n1"
  pIC50: 6.00

====

experiment: Metabolic stability in monkey liver microsomes assessed as compound remaining at 1 uM after 30 mins by LC/MS analysis; format: ADME, Macaca mulatta, Microsome; settings: rhesus monkey, read-out: Stability
Hi! Just check whether remaining at 0.5 h, 1 µM is below 60%. Below gives TRUE, equal or above gives FALSE.

- item-smiles: "CCOCc1c(C(=O)NCc2cncn2C)cnn1-c1ncc(C)c(NC2CCC2)n1"
  group-label: "FALSE"
- item-smiles: "CCOCc1c(C(=O)NCc2cncn2C)cnn1-c1ncc(C)c(N2CCC2)n1"
  group-label: "FALSE"
- item-smiles: "CCCCc1c(C(=O)NCc2cncn2C)cnn1-c1ncc(C)c(-c2cccs2)n1"
  group-label: "TRUE"
- item-smiles: "CCOCc1c(C(=O)NCc2cncn2C)cnn1-c1ncc(C)c(OCC)n1"
  group-label: "FALSE"
- item-smiles: "CCOCc1c(C(=O)NCc2cncn2C)cnn1-c1ncc(C)c(N2CCCC2)n1"
  group-label: "TRUE"
- item-smiles: "CCOCc1c(C(=O)NCc2cncn2C)cnn1-c1ncc(C)c(-c2cccs2)n1"
  group-label: "TRUE"
